Method Notes: Quantification of Compound A in mouse lung, brain and plasma
Format: in vivo, CD-1 mice
Details: CD-1, mouse, lung, iv, 15 mg/kg, IV 15 mg/kg, 7 h, individual mice; assuming tissue density 1 g/mL; read-out: Lung concentration
Measured Attribute: concentration at 7 h

# Query Smiles, Val
measured = [
    ("N#C[C@@]1(n2ccc(N)nc2=O)O[C@H](CO)[C@@H](O)[C@H]1O", "830 nM"),
]

====

Method Notes: Non-compartmental PK analysis of IV and oral Compound A in mice
Assay type: in vivo
Details: mouse, plasma, 30 mg/kg, oral dose, read-out: mean terminal t1/2 (converted)

# Compound, half-life (h)
data = [
    ("N#C[C@@]1(n2ccc(N)nc2=O)O[C@H](CO)[C@@H](O)[C@H]1O [Compound A]", 2.47),
]

====

Method Notes: Cytotoxicity in CEM cells
Type: cell-based, human
Details: human, CEM lymphoblastoid cells
Protocol: The toxicity of the compounds was assessed in Vero, human PBM, CEM (human lymphoblastoid), MT-2, and HepG2 cells, as described previously (see Schinazi R. F., Sommadossi J.-P., Saalmann V., Cannon D. L., Xie M.-Y., Hart G. C., Smith G. A. & Hahn E. F. Antimicrob. Agents Chemother. 1990, 34, 1061-67). Cycloheximide was included as positive cytotoxic control, and untreated cells exposed to solvent were included as negative controls. […]
Measured Attribute: CC50

# Molecule, Measured Attribute, Val
data = [
    ("CCCCCCCC(=O)OC[C@H]1O[C@@](C#N)(n2ccc(N)nc2=O)C(O)C1O (stereo partly drawn) [drawing 134]", "CC50", "3.7 µM"),
    ("CC(C)OC(=O)[C@H](C)N[P@](=O)(OC[C@H]1O[C@@](C#N)(n2ccc(N)nc2=O)C(O)C1O)Oc1ccccc1 (stereo partly drawn) [drawing 131]", "CC50", "> 100 µM"),
    ("CC(C)C(=O)OC[C@H]1O[C@@](C#N)(n2ccc(N)nc2=O)C(O)C1O (stereo partly drawn) [drawing 133]", "CC50", "15.8 µM"),
    ("N#C[C@@]1(n2ccc(N)nc2=O)O[C@H](CO)[C@@H](O)[C@H]1O [Compound A]", "CC50", "99 µM"),
    ("N#C[C@@]1(n2ccc(=O)[nH]c2=O)O[C@H](CO)C(O)C1O (stereo partly drawn) [drawing 130]", "CC50", "12.1 µM"),
    ("CC(C)C(=O)OC[C@H]1O[C@@](C#N)(n2ccc(=O)[nH]c2=O)C(O)C1O (stereo partly drawn) [drawing 132]", "CC50", "39 µM"),
]

====

Tested on: Vero cells
Method Notes: Cytotoxicity in Vero cells
Details: read-out: Cytotoxicity CC50 Vero; Vero cells

# Compound, Assayed Target, CC50 / µM
data = [
    ("O=c1nc(NO)ccn1[C@@H]1O[C@H](CO)[C@@H](O)[C@H]1O [NHC, N^4-hydroxycytidine, reference compound]", "Vero cells", 16.5),
]

====

System: Huh7 cells
Method Notes: Cytotoxicity in Huh7 cells
Format: cell-based
Measured Attribute: CC50 (µM)

# Compound, Val
measured = [
    ("CCC(CC)COC(=O)[C@H](C)N[P@](=O)(OC[C@H]1O[C@@](C#N)(c2ccc3c(N)ncnn23)[C@H](O)[C@@H]1O)Oc1ccccc1 [Remdesivir, reference compound]", 1.5),
]
